Tested on: A498 renal
Protocol Notes: NCI-60 one-dose screen, 48 h
Experimental Context: 10 µM unless noted
Experimental: Growth inhibition of the A498 human tumor cell line is measured as a screen for anti-cancer activity. Cells are grown in 96 well plates and exposed to the test compound for 48 hours. Compounds are tested at a single concentration, which is 10^-5 M for most compounds. The reported endpoint is percent growth (GI% or GIPRCNT), where numbers from 0 - 100% represent growth inhibition, and numbers from -100% - 0 represent cell death. For example, a value of 40 represents 60% growth inhibition. […]
The panel holds about 83,000 compounds, 20% with a hit somewhere; the sample as a whole holds those more often. Active and inactive are the calls of the source. How the source made its calls: active means growth percent below 10; inactive means the rest.
Please reply with one of these outcomes: T for active, F for inactive

Tell me the recorded outcome of this test for Oc1c(Cl)cc(Cl)c(Cl)c1CNCCNCc1c(O)c(Cl)cc(Cl)c1Cl . F

State the result this test recorded for C=C(C)[C@@H]1CC[C@]2(C(=O)N[C@H](CO)Cc3ccccc3)CC[C@]3(C)[C@H](CC[C@@H]4[C@@]5(C)CCCNC(C)(C)[C@@H]5CC[C@]43C)[C@@H]12 . T

Query: recorded result category for CC(=O)Oc1ccc(/C=N/NC(N)=S)nc1 in this test F

Which outcome was entered for the compound O=C(CNCCN1CCOCC1)N1c2cccc3cccc(c23)N(C(=O)CNCCN2CCOCC2)C1c1cn(-c2ccccc2)nc1-c1cccc([N+](=O)[O-])c1 in this test? F

For this compound, state the assay outcome: C[C@@H](Nc1ncnc2ccc(-c3cnc(N)nc3)cc12)c1ccc(F)cc1 T

Per the assay record, what outcome was assigned to COC1=CC(=O)c2ccccc2C1=O ? F

// return assay outcome for COc1ccc(-c2cnc3c(-c4cccc5ncccc45)cnn3c2)cc1 F

Dear colleague, could you share the recorded outcome for O=C1Nc2ccccc2/C1=C\c1c(-c2ccccc2)nc2ccccn12 when you have a moment? F

# outcome recorded in this test, key = Cc1ccc(C(=O)/C(=C\c2ccc([N+](=O)[O-])cc2)S(=O)Cc2ccc(F)cc2)cc1 (stereo not drawn) F

# fetch the recorded call for O=C1C=CC(=O)N1c1cccc(Cl)c1 here F

Lab log entry: CCOC(=O)c1nc2c3ccccc3ccn2c1C(=O)OCC — outcome as called in the assay? F

So what was the verdict on COc1cc2cc(Oc3cccc(NC(=O)Nc4cc(C(F)(F)F)cc(C(F)(F)F)c4)c3)c(C)nc2cc1OC in this test? T

Which outcome did this test record for the compound COc1ccc(C(=O)CC#N)cc1 ? F

Hi, do you know how O=C(CCN1CCCC1)c1ccc([N+](=O)[O-])cc1 came out in this test? F

Assay result, entry O=C(Nc1ncc(Cc2cc(Cl)ccc2Cl)s1)c1cccs1 — outcome? F

Which outcome did this test record for the compound Cc1nnc2c(Cc3ccccc3)nc3ccccc3n12 ? F

Write down the call the test reported for this compound. Item: CCc1c2c(nc3ccc(OCc4ccc(B(O)O)cc4)cc13)-c1cc3c(c(=O)n1C2)COC(=O)[C@]3(O)CC T

Which outcome was assigned to CN(CCN(C)c1ccc(C(=N)N)cc1)c1ccc(C(=N)N)cc1 in this test? F

// outcome(item) with item = N#Cc1c(-c2ccccc2)nc2c(c(-c3ccccc3)nn2-c2ccccc2)c1-c1ccc(O)cc1 T

GET /call?item= NNC(=O)c1ccc(-n2nc(-c3ccccc3)c3ccccc32)cc1 returns the recorded outcome of this test. F

Tell me the assay call for CCCN1[C@@H]2CC[C@H]1/C(=C\c1ccc(OC)c(OC)c1)C(=O)/C2=C/c1ccc(OC)c(OC)c1 please. F

What was the test verdict on Oc1cccc(CCc2ccc(Oc3cc(CCc4cccc(O)c4)cc(O)c3O)cc2)c1 ? F

Tell me the assay call for CCCCCCCC(=O)OCC/C=C/C1OC1C1OC(=O)/C=C\C=C\C(=O)N(C(C)=O)C(=O)/C=C(/C)CCC2OC2C1OC(=O)NC(C)=O (stereo not drawn) please. F

// param item: Cc1ccc(-n2nc3c(c(C#N)c2=O)CC(c2ccccc2[N+](=O)[O-])C([N+](=O)[O-])=C3O)cc1 (stereo not drawn) ; yields the recorded call F

Which result was noted for this compound in the test: CCOC(=O)C1=C(CCl)NC(=O)NC1c1ccc2c(c1)OCO2 (stereo not drawn) F

How did this test come out for O=C1/C=C/[C@@H](O)[C@@H]2C[C@@H](O)C[C@H]2/C=C/CCC[C@H](CCc2cccc3ccccc23)O1 ? T

GET /call?item= C=C1C(=O)O[C@H]2[C@H]1CC/C(CNC(=O)c1cccc3ccccc13)=C\CC[C@@]1(C)O[C@@H]21 returns the recorded outcome of this test. F

Query: recorded result category for CCOC(=O)c1cc(C(=O)c2ccc(Br)cc2)n2ccc(/C=C/c3cc[n+](CC(=O)c4ccc(OC)cc4)cc3)cc12 in this test F

What was the test verdict on COc1cc(C(=O)Nc2cc3c(cc2Oc2cc(C)cc(C)c2)C(=O)N(C)[C@@H](CC(=O)N(C)O)C(=O)N3)c(Br)c(OC)c1OC ? T

Short answer needed: outcome of this test for NS(=O)(=O)c1ccc(CCn2c(SCC(=O)c3ccc(Cl)cc3)nc3ccccc3c2=O)cc1 ? F

Hey, what did the test say about N#CC1=C(N)Oc2c(ccc3ccccc23)C1c1ccccc1Cl (stereo not drawn) ? T

For CCN(CC)CCOc1ccc(NC(=O)C(C(C)C)N2C(=O)/C(=C/c3ccc(Br)cc3)SC2=S)cc1 (stereo not drawn) , which call appears in the assay record? F

Entry COc1cc(/C=C\c2cc(/C=C\c3ccc(O)c(OC)c3)n(C(=O)COc3ccccc3)n2)ccc1O : call = ? F

Assay outcome for Fc1ccc2c(-c3cncn3CCc3ccccc3)c[nH]c2c1 : what was it? F

Entry COc1ccc(/C=C/c2nc(Nc3ccc(Cl)cc3)c3ccccc3n2)cc1 : call = ? F

What is the recorded call for this compound in the test? COc1ccc(C(=O)C2C(C#N)C(C#N)C3c4ccccc4C=CN23)cc1 (stereo not drawn) F

What did this assay record as the result for CN1[C@@H]2CC[C@H]1/C(=C\c1ccccc1)C(=O)/C2=C/c1ccccc1 ? F

What outcome does the record of this test show for COc1ccc(CCn2cncc2-c2c[nH]c3ccccc23)cc1 ? F

---

Tested on: TK-10 renal
Protocol Notes: NCI-60 one-dose screen, 48 h (100 = growth as untreated, 0 = no growth, -100 = all killed)
Experimental Context: 10 µM unless noted
Compounds without any hit were thinned out: in the full panel of roughly 83,000, 20% have a hit.
What growth was measured for each of the following?
Provide the reading as a plain figure in %.

Could you share what growth was measured for Cc1ccc(-c2[nH][nH]c(=O)c2-c2nc3ccccc3s2)cc1 , tested on TK-10 renal? 107

Param readout = growth; param system = TK-10 renal; param query = CCCCCN1C=C/C(=C\C(=O)N2CCCc3ccccc32)c2ccccc21 ; response: value 105

What reported growth corresponds to CCCCCOc1ccc(/C=N/Nc2cc(C)nc3ccc(Cl)cc23)cc1 on TK-10 renal? -22.5

What value of growth on TK-10 renal does COc1ccc(/C=C/c2nc(Nc3cccc(NC(C)=O)c3)c3ccccc3n2)cc1 have? 92.7

Can you look up growth on TK-10 renal for CCCCCN1C=C/C(=C\C(=O)N(C)c2ccc(Oc3ccccc3)cc2)c2ccccc21 ? 92.1

Query the reported growth for TK-10 renal; item: CCOC(=O)c1cc(C(=O)c2ccc(OC)c(OC)c2)n2ccc(/C=C/c3cc[n+](CC(=O)c4ccc(OC)c(OC)c4)cc3)cc12 113

So what growth did Cc1ccc(CNc2c3ccccc3nc3cc(NC(=O)CCN4CCCC4)ccc23)cc1 get with TK-10 renal? -20

Under TK-10 renal: growth value of Cc1nc2sccn2c1-c1cn2ccsc2n1 ? 103

API: value(readout= growth, system= TK-10 renal, query= Cn1c(-c2c(N)n(CCCN3CCOCC3)c3nc(C#N)c(C#N)nc23)nc2ccccc21 ) 46.8

Please state recorded growth (tested on TK-10 renal) of COc1cc(C2=NN(C(C)=O)C(c3cc(OC)c(OC)c(OC)c3)C2)ccc1O (stereo not given) 47.5

---

Test system: HCT-116 colon
Protocol Notes: NCI-60 one-dose screen, 48 h
Experimental Context: 10 µM unless noted
The panel holds about 83,000 compounds, 20% with a hit somewhere; the sample as a whole holds those more often. Calls of active or inactive are those of the source. How the source made its calls: active means growth percent below 10; inactive means the rest.
Respond only with the outcome that fits, drawn from t = active, f = inactive

Answer briefly: the call reported for Cn1c2ccccc2c2c3c(c4c5ccccc5n(C)c4c21)C(=O)OC3 in this assay. f

Test call for this molecule, please: COc1ccc(-c2nc(S(=O)(=O)c3ccccc3)c(S(=O)CC(=O)N3CCC(C)CC3)o2)cc1 (stereo unspecified) t

Just curious, what result did CN[C@@H](C)C(=O)N[C@H]1CCS[C@H]2CC(C)(C)[C@@H](C(=O)N[C@H]3c4ccccc4C[C@H]3OCC#CC#CCO[C@@H]3Cc4ccccc4[C@@H]3NC(=O)[C@H]3N4C(=O)[C@@H](NC(=O)[C@H](C)NC)CCS[C@H]4CC3(C)C)N2C1=O get here? f

Write down the call the test reported for this molecule. Item: Fc1ccc(-c2cn3c(nc4ccccc43)c(-c3ccccc3)n2)cc1 f

I would be grateful if you could indicate the recorded call for Cc1ccc(-n2nc3c(c(C#N)c2=O)CC(c2ccccc2[N+](=O)[O-])C([N+](=O)[O-])=C3O)cc1 (stereo unspecified) . f

Please share the test call associated with COc1cc2nc(-c3ccc(C(F)(F)F)cc3)cc(OCCCN3CCCC3)c2cc1OC . f

Which outcome did this test record for the molecule C=C1C(=O)O[C@H]2[C@H]1CC/C(CNC(=O)/C=C/c1ccccc1)=C\CC[C@@]1(C)O[C@@H]21 ? t

Please share the test call associated with COc1cc2oc(-c3cccc(C(=O)Nc4ccc(Cl)cc4)c3)cc(=O)c2c(O)c1OC . f

Identify the outcome logged in this assay for the molecule shown: Cn1cc(CC2CC(=O)N(c3ccccc3)C2=O)sc1=NC(=O)c1ccccc1 (stereo unspecified) f

Recorded test call requested for COC1=CC(=O)c2ccccc2C1=O f

Hello, I am checking results. What call was entered for CC(Oc1ccc(C(=O)O)cc1C(F)(F)F)c1ccc(Oc2ccccc2)cn1 (stereo unspecified) ? f

Test call, this molecule: COC(=O)/C=C1\S/C(=N\NC(=O)c2cc3ccc2/C=C\c2ccc(cc2)/C=C\3)N(c2ccccc2)C1=O t

Answer briefly: the call reported for Cn1cc(-c2nc(-c3c[nH]c4c(Cl)nccc34)cs2)c2cc(F)ccc21 in this assay. f

Any idea what this test logged for CC(C)(C)c1ccc(NS(=O)(=O)c2ccc3nc(NC(=O)c4cnccn4)[nH]c3c2)cc1 ? f

In this assay, the call recorded for C[C@H](c1nc2ccc(N)cc2[nH]1)[C@H]1CC[C@H]2[C@@H]3CCC4=CC(=O)CC[C@]4(C)[C@H]3CC[C@]12C was what? f

What was the test verdict on NS(=O)(=O)c1ccc(CCN2C(=O)c3cc(Cl)c(Cl)cc3C2=O)cc1 ? f

Lab log entry: C=C1C(=O)O[C@H]2[C@H]1CC/C(COC(=O)NCc1c[nH]c3ccc(F)cc13)=C\CC[C@@]1(C)O[C@@H]21 — outcome as called in the assay? t

Just curious, what result did N#Cc1c(-c2ccccc2)nc2c(c(-c3ccccc3)nn2-c2ccccc2)c1-c1ccc(O)cc1 get here? f

# lookup: test call for C=C1C(=O)O[C@H]2[C@H]1CC/C(COC(=O)NCC(C)c1ccc(CC(C)C)cc1)=C\CC[C@@]1(C)O[C@@H]21 (stereo partly specified) t

Just curious, what result did O=C(CCN1CCCC1)Nc1ccc2c(NCCc3ccccc3)c3ccccc3nc2c1 get here? t

Dear colleague, could you share the recorded outcome for COc1cc(C2C3=C(COC3=O)N(CCO)c3cc4c(cc32)CCC4)cc(OC)c1OC (stereo unspecified) when you have a moment? t

Each molecule tested received a call. Report the one for COC(=O)N[C@H]1CCc2c(Cl)c(OC)c(OC)c(OC)c2-c2ccc(SC)c(=O)cc21 . t

// return assay outcome for COc1cc2nc(-c3ccc(C(F)(F)F)cc3)cc(OCCN3CCCCC3)c2cc1OC f

Called result for COc1cc2c(c(O)c1Br)C(=O)c1c(O)cc(C[C@H](C)O)cc1[C@H]2[C@H]1c2cc(C[C@H](C)O)cc(O)c2C(=O)c2c1cc(OC)c(Br)c2O f

Per the assay record, what outcome was assigned to C=C(C)[C@@H]1CC[C@]2(C(=O)N[C@H](CO)Cc3ccccc3)CC[C@]3(C)[C@H](CC[C@@H]4[C@@]5(C)CCCNC(C)(C)[C@@H]5CC[C@]43C)[C@@H]12 ? t

Which outcome was entered for the molecule COc1cc2c(c(O)c1Cl)C(=O)c1c(O)cc(C[C@H](C)O)cc1[C@H]2[C@H]1c2cc(C[C@H](C)O)cc(O)c2C(=O)c2c1cc(OC)c(Cl)c2O in this test? t

Please state the recorded outcome for this molecule: O=c1ccc(-c2nc(N3CCOCC3)c3ccccc3n2)c[nH]1 f

Assay result, entry Cc1ccc(C(=O)/C(=C\c2ccc([N+](=O)[O-])cc2)S(=O)Cc2ccc(Cl)cc2)cc1 (stereo unspecified) — outcome? t

Recorded call for COc1ccc(C/C(C)=C(/c2ccc(OCCCN(C)C)cc2)c2ccc(OC(C)=O)cc2)cc1 ? f

Can you look up the reported call for COc1cc2c(c(OC)c1OC)-c1ccc(NNC(=S)N(Cc3cccc(C[N+](Cc4cccc(CNC56CC7CC(CC(C7)C5)C6)c4)(Cc4cccc(CNC56CC7CC(CC(C7)C5)C6)c4)Cc4cccc(CN(C(=S)NNc5ccc6c(cc5=O)[C@@H](NC(C)=O)CCc5cc(OC)c(OC)c(OC)c5-6)C56CC7CC(CC(C7)C5)C6)c4)c3)C34CC5CC(CC(C5)C3)C4)c(=O)cc1[C@@H](NC(C)=O)CC2 (stereo partly specified) for me? t

Just curious, what result did c1ccc(-c2cn3c(ccc4ccccc43)n2)cc1 get here? f
